# Tested on: NOMO1
# experiment notes: cell viability relative to DMSO control; higher = less cytotoxic
# assay context: RPMI 5 mM glucose + 10% dialyzed FBS; 48 h; 1.71 µM
measurement kind: cell viability (%)
The answer is to be given in %; state only the numeric part.

Noted cell viability for C=CC(=O)Nc1cc2c(Nc3ccc(F)c(Cl)c3)ncnc2cc1C#CC(C)(C)N1CCN(C)CC1 , tested on NOMO1: 106

Noted cell viability for COc1ccc(CCC(=O)c2c(O)cc(O[C@@H]3O[C@H](CO)[C@@H](O)[C@H](O)[C@H]3O[C@@H]3O[C@@H](C)[C@H](O)[C@@H](O)[C@H]3O)cc2O)cc1O , tested on NOMO1: 113

Noted cell viability for CN(C)c1nc(Cc2ccc(NC(=O)c3ccc(C(F)(F)F)cc3)cc2)nc(N(C)C)c1CC(=O)O , tested on NOMO1: 99.8

Noted cell viability for N[S+](=O)([O-])c1ccc(Nc2nc(OCC3CCCCC3)c3[nH]cnc3n2)cc1 , tested on NOMO1: 35.9

Noted cell viability for COc1cc2c(cc1OC)[C@@H]1Cc3ccc(OC)c(OC)c3CN1CC2 , tested on NOMO1: 97.8

Noted cell viability for CC(C)(N)c1ccc(-c2nc3ccccc3nc2-c2ccccc2)cc1 , tested on NOMO1: 13.2

Noted cell viability for Cc1cc(Nc2ncc3c(n2)N(C)C(=O)N(c2cc(NC(=O)c4cccc(C(F)(F)F)c4)ccc2C)C3)n(C)n1 , tested on NOMO1: 60.2

* * *

# System: P12-Ichikawa
# experiment notes: cell viability relative to DMSO control; higher = less cytotoxic
# assay context: RPMI 5 mM glucose + 10% dialyzed FBS; 48 h; 0.000781 µM
measurement kind: cell viability (%)
The answer is to be given in %; state only the numeric part.

Noted cell viability for O=C(O)CCCCCC(=O)NN=C1CCCC1 , tested on P12-Ichikawa: 85.4

Noted cell viability for CCn1nnc2c(N3CCOCC3)nc(-c3ccc(NC(=O)Nc4ccc(C(=O)N5CCN(C)CC5)cc4)cc3)nc21 , tested on P12-Ichikawa: 93.7

Noted cell viability for Cc1cc(Nc2ncc3c(n2)N(C)C(=O)N(c2cc(NC(=O)c4cccc(C(F)(F)F)c4)ccc2C)C3)n(C)n1 , tested on P12-Ichikawa: 111

Noted cell viability for N[S+](=O)([O-])c1ccc(Nc2nc(OCC3CCCCC3)c3[nH]cnc3n2)cc1 , tested on P12-Ichikawa: 120

Noted cell viability for Oc1ccc(OCc2ccccc2)cc1 , tested on P12-Ichikawa: 105

* * *

# System: P12-Ichikawa
# experiment notes: cell viability relative to DMSO control; higher = less cytotoxic
# assay context: RPMI 5 mM glucose + 10% FBS; 48 h; 0.00234 µM
measurement kind: cell viability (%)
The answer is to be given in %; state only the numeric part.

Please fill in: cell viability reported for CC(=O)N(C)C1(c2ccccc2)CCN(CCC[C@]2(c3ccc(Cl)c(Cl)c3)CCCN(C(=O)c3ccccc3)C2)CC1 = 110

Please fill in: cell viability reported for COc1ccc(/C=C\c2cc(OC)c(OC)c(OC)c2)cc1NC(=O)[C@H](N)CO = 144

Please fill in: cell viability reported for COc1ccccc1[C@H](c1cccc2ccccc12)[C@@](C)(C#N)C(=O)N1CCC(c2cccc(C(F)(F)F)c2)CC1 = 115

Please fill in: cell viability reported for C[C@]12CCC3c4ccc(O)cc4CCC3C1CCC2=O (some centres not stated) = 95.4

Please fill in: cell viability reported for Nc1ccc(C(=O)c2cc3c(ccc4ccccc43)[nH]2)cc1 = 112

Please fill in: cell viability reported for CC(=O)OC[C@@H]1O[C@H]([C@H](OC(C)=O)[C@@H]1OC(C)=O)N2\C=C/C(=O)NC2=O = 117

Please fill in: cell viability reported for Nc1ccc(C(=O)Nc2cccc(-c3nc(N4CCOCC4)c4oc5ncccc5c4n3)c2)cn1 = 119

Please fill in: cell viability reported for CC(C)(N)c1ccc(-c2nc3ccccc3nc2-c2ccccc2)cc1 = 120

Please fill in: cell viability reported for Cc1cc(Nc2ncc3c(n2)N(C)C(=O)N(c2cc(NC(=O)c4cccc(C(F)(F)F)c4)ccc2C)C3)n(C)n1 = 120

Please fill in: cell viability reported for CCNC(=O)Nc1ccc(Oc2ncnc(N)c2/C=N/OC)cc1Cl = 113

Please fill in: cell viability reported for CC(=O)SC[C@@H](C)C(=O)N1CCC[C@H]1C(=O)N[C@@H](Cc1ccccc1)C(=O)O = 93.2

Please fill in: cell viability reported for CO[C@H]1CCC(O[C@H]2C[C@H]([C@]3(C)CC[C@]4(C[C@H](O)[C@@H](C)[C@@H]([C@@H](C)/C=C(\C)C(=O)[C@H](C)C[C@H](C)C(=O)[O-])O4)O3)O[C@]3(O[C@@H]([C@H]4O[C@@](O)(CO)[C@H](C)C[C@@H]4C)C[C@@H]3C)[C@@H]2C)O[C@@H]1C (some centres not stated) = 113

Please fill in: cell viability reported for CC(C)C1CCC(C(=O)N[C@H](Cc2ccccc2)C(=O)O)CC1 (some centres not stated) = 97.8

Please fill in: cell viability reported for NC(=O)c1cccc(-c2cc(Nc3ccc(OC(F)(F)F)cc3)ncn2)c1 = 97.7

Please fill in: cell viability reported for CCCCc1ccc2[nH]c(NC(=O)OC)nc2c1 = 112

Please fill in: cell viability reported for CCCOc1ccc(C(=O)OCCN(CC)CC)cc1N = 130

Please fill in: cell viability reported for Oc1ccc(OCc2ccccc2)cc1 = 116

* * *

# Test system: NOMO1
# experiment notes: cell viability relative to DMSO control; higher = less cytotoxic
# assay context: HPLM + 10% dialyzed FBS; 48 h; 1.71 µM
measurement kind: cell viability (%)
The answer is to be given in %; state only the numeric part.

Noted cell viability for CCCCCCNC(=O)N1\C=C(F)/C(=O)NC1=O , tested on NOMO1: 124

Noted cell viability for N[S+](=O)([O-])c1ccc(Nc2nc(OCC3CCCCC3)c3[nH]cnc3n2)cc1 , tested on NOMO1: 41.3

Noted cell viability for NC1=NC(=O)N2CC12 (centres undefined) , tested on NOMO1: 73.9

Noted cell viability for C[C@H](NC(=O)Cc1cc(F)cc(F)c1)C(=O)N[C@H](C(=O)OC(C)(C)C)c1ccccc1 , tested on NOMO1: 73.8

Noted cell viability for COc1cc(NCc2ccc3nc(N)nc(N)c3c2C)cc(OC)c1OC , tested on NOMO1: 44.4

Noted cell viability for Nc1n[nH]c2nnc(-c3c(-c4ccccc4)nn4ccccc34)cc12 , tested on NOMO1: 86.3

Noted cell viability for O=C(/C=C/c1ccc(/C=C/C(=O)Nc2ccc(C3=NCCN3)cc2)cc1)Nc1ccc(C2=NCCN2)cc1 , tested on NOMO1: 123

Noted cell viability for CC(=O)N(C)C1(c2ccccc2)CCN(CCC[C@]2(c3ccc(Cl)c(Cl)c3)CCCN(C(=O)c3ccccc3)C2)CC1 , tested on NOMO1: 25.1

Noted cell viability for Nc1ccc(C(=O)c2cc3c(ccc4ccccc43)[nH]2)cc1 , tested on NOMO1: 110

* * *

Exercise: for every item that follows, state its recorded cell viability.
# System: SEM cells
# experiment notes: cell viability relative to DMSO control; higher = less cytotoxic
# assay context: RPMI 5 mM glucose + 10% dialyzed FBS; 48 h; 0.0632 µM
The answer is to be given in %; state only the numeric part.

Please fill in: cell viability reported for C[C@]1(O)CC(C1)C2=NC(=C3[N]2C=CN=C3N)C4=CC5=C(C=C4)C=CC(=N5)C6=CC=CC=C6 (stereo not drawn) = 87.2

Please fill in: cell viability reported for CN1C(=O)c2sccc2N(C)c2nc(Nc3ccc([S+](N)(=O)[O-])cc3)ncc21 = 95.6

Please fill in: cell viability reported for CCN(CC)CCNC(=O)c1c(C)[nH]c(/C=C2\C(=O)Nc3ccc(F)cc32)c1C = 27.6

Please fill in: cell viability reported for CNc1nc(-c2ccc3c(N)n[nH]c3c2)cc(N2C[C@@H](C(=O)NC3CCCCC3)CC[C@H]2C)n1 = 79.4

Please fill in: cell viability reported for CNC(=O)c1ccc2c(c1)NC(=O)/C2=C(\Nc1cccc(CN(C)C)c1)c1ccccc1 = 87.2

Please fill in: cell viability reported for OC1=CC=C(C=C1)C/2=C/C3=C(OC2)C=C(O)C=C3 = 99.1

Please fill in: cell viability reported for C[C@H](NC(=O)Cc1cc(F)cc(F)c1)C(=O)N[C@H](C(=O)OC(C)(C)C)c1ccccc1 = 96.9

Please fill in: cell viability reported for C[C@@H]1[C@H]\2[C@H](O)[C@H]3[C@H](N(C)C)\C(=C(C(N)=O)/C(=O)[C@@]3(O)\C(=C2C(=O)C4=C(O)C=CC=C14)O)O = 108

* * *

Exercise: for every item that follows, state its recorded cell viability.
# Tested on: NOMO1
# experiment notes: cell viability relative to DMSO control; higher = less cytotoxic
# assay context: RPMI 5 mM glucose + 10% FBS; 48 h; 0.0632 µM
The answer is to be given in %; state only the numeric part.

Please fill in: cell viability reported for c1cc(-c2cnn3cc(-c4ccc(OCCN5CCCCC5)cc4)cnc23)ccn1 = 83.9

Please fill in: cell viability reported for CCN(CC)CCNC(=O)c1c(C)[nH]c(/C=C2\C(=O)Nc3ccc(F)cc32)c1C = 115

Please fill in: cell viability reported for CC(C)C1CCC(C(=O)N[C@H](Cc2ccccc2)C(=O)O)CC1 (stereo partly drawn) = 92.2
